This section presents compounds with their documented melting point values.
RESULT_TYPE: melting point

INSERT INTO assay_data (compound, result_type, result) VALUES
  ('Oc1ccccc1-n1cc(CN2CCC(O)c3ccccc3C23CCCCC3)nn1 (stereo not drawn) [Compound 11q]', 'melting point', '156.8 to 157.2 °C'),
  ('Cc1ccc(-n2cc(CN3CCC(O)c4ccccc4C34CCCCC4)nn2)cc1 (stereo not drawn)', 'melting point', '164.3 to 165.2 °C'),
  ('OC1CCN(Cc2cn(-c3ccc(F)cc3)nn2)C2(CCCCC2)c2ccccc21 (stereo not drawn) [Compound 11d]', 'melting point', '166.2 to 166.8 °C'),
  ('OC1CCN(Cc2cn(-c3cccc(Br)c3)nn2)C2(CCCCC2)c2ccccc21 (stereo not drawn) [Compound 11o]', 'melting point', '169.3 to 170.2 °C'),
  ('Oc1cccc(-n2cc(CN3CCC(O)c4ccccc4C34CCCCC4)nn2)c1 (stereo not drawn) [Compound 11r]', 'melting point', '157.4 to 158.6 °C'),
  ('Cc1ccccc1-n1cc(CN2CCC(O)c3ccccc3C23CCCCC3)nn1 (stereo not drawn) [Compound 11e]', 'melting point', '165.2 to 166 °C');
